Origin of the recorded values: patent US8247211B2

system: Enterococcus sp.; test: In vitro antibacterial evaluation: minimum inhibitory concentration (MIC), broth dilution method; format: cell-based; conditions: broth dilution, 18 hours at 35° C.
READOUT KIND: MIC Enterococcus faecalis (GC 4554) (µg/mL)
Write the value in µg/mL as a bare number.

// below: answered compounds
INSERT INTO measurements (compound, unit_annotation, observed_result) VALUES
  ('Cc1ccc(Oc2cccc(-c3nc4cc(CC5NC(=O)C(C(C)c6ccccc6)NC(=O)CNC(=O)C(CO)NC(=O)C(C(O)C6CNC(=N)N6C6OC(CO)C(O)C(O)C6O)NC(=O)C(C(O)C6CNC(=N)N6)NC5=O)ccc4o3)c2)cc1 (centres unmarked) [Example 28]', 'µg/mL', 8),
  ('COc1cc(-c2nc3cc(CC4NC(=O)C(C(C)c5ccccc5)NC(=O)CNC(=O)C(CO)NC(=O)C(C(O)C5CNC(=N)N5C5OC(CO)C(O)C(O)C5O)NC(=O)C(C(O)C5CNC(=N)N5)NC4=O)ccc3o2)cc(OC)c1OC (centres unmarked) [Example 34]', 'µg/mL', 32),
  ('CC(c1ccccc1)C1NC(=O)CNC(=O)C(CO)NC(=O)C(CC2CNC(=N)N2C2OC(CO)C(O)C(O)C2O)NC(=O)C(CC2CNC(=N)N2)NC(=O)C(Cc2ccc3oc(-c4ccc5c(c4)Cc4ccccc4-5)nc3c2)NC1=O (centres unmarked) [Example 42]', 'µg/mL', 8);

Okay, now this compound:
IN: Supply MIC Enterococcus faecalis (GC 4554) measured with Enterococcus sp. for CC(c1ccccc1)C1NC(=O)CNC(=O)C(CO)NC(=O)C(C(O)C2CNC(=N)N2C2OC(CO)C(O)C(O)C2O)NC(=O)C(C(O)C2CNC(=N)N2)NC(=O)C(Cc2ccc3oc(SCc4ccccc4)nc3c2)NC1=O (centres unmarked) [Example 45] .
OUT: 16
